These measurements were taken from patent EP2046786B1.

- assay_name: Solubility in water (pH 6.8) + 2 % SDS
- Format: physicochemical
- setup_conditions: water + 2 % SDS, aqueous with cosolvent or surfactant or cyclodextrin; water (pH 6.8) + 2 % SDS at room temperature
attribute_measured: solubility (µg/mL)

molecule: O.O.O=C1Cc2cc(CCN3CCN(c4nsc5ccccc45)CC3)c(Cl)cc2N1.O=S(=O)(O)O [Ziprasidone hydrogensulfate dihydrate]
unit_tag: µg/mL
assay_result: 360
